What IC50 was measured for each of the following?
tested on: Acinetobacter baumannii; assay: Antibacterial activity against Acinetobacter baumannii AB-5075 assessed as reduction in bacterial growth incubated for 18 to 24 hrs by broth micro-dilution assay; format: functional, organism-based
# number only, unit nM dropped from output

Enter reported IC50 observed with Acinetobacter baumannii for CN(C)c1cc(NC(=O)CNC(C)(C)C)c(O)c2c1C[C@H]1C[C@H]3[C@H](N(C)C)C(O)=C(C(N)=O)C(=O)[C@@]3(O)C(O)=C1C2=O 150

What do we get for O=c1[nH]cc(F)c(=O)[nH]1 ? 1800

What do we get for CN(C)[C@@H]1C(O)=C(C(N)=O)C(=O)[C@@]2(O)C(O)=C3C(=O)c4c(O)cccc4[C@@](C)(O)[C@H]3C[C@@H]12 ? 40

What do we get for CC[C@H]1OC(=O)[C@H](C)[C@@H](O[C@H]2C[C@@](C)(OC)[C@@H](O)[C@H](C)O2)[C@H](C)[C@@H](O[C@@H]2O[C@H](C)C[C@H](N(C)C)[C@H]2O)[C@](C)(O)C[C@@H](C)CN(C)[C@H](C)[C@@H](O)[C@]1(C)O ? 1100
